Test system: Plasmodium falciparum
Test: Antimalarial activity against Plasmodium falciparum FCR3/A2
Type: functional, organism-based
Settings: FCR-3
pIC50: −log10 of the molar value.
Readout kind: pIC50

Recorded pIC50, per entry:
[
  {
    "Molecule": "CC(=O)O[C@H]1CCC(C)(C)[C@]2(O)C[C@H](O)[C@H]3C(=O)c4ccoc4C[C@@H]3[C@@]12C [NORCAESALPININ E]",
    "Experimental target": "Plasmodium falciparum",
    "pIC50": 7.05
  },
  {
    "Molecule": "CC(=O)O[C@H]1[C@@H](OC(C)=O)C(C)(C)[C@]2(O)CC[C@H]3C(=O)c4ccoc4C[C@@H]3[C@@]2(C)[C@H]1OC(C)=O [3-O-ACETYLNORCAESALPININ A]",
    "Experimental target": "Plasmodium falciparum",
    "pIC50": 5.70
  },
  {
    "Molecule": "CC(=O)O[C@H]1CCC(C)(C)[C@]2(O)[C@@H](OC(C)=O)[C@@H]3OC(=O)[C@@H]4c5ccoc5C[C@@H]([C@@H]34)[C@@]12C [CAESALPININ D]",
    "Experimental target": "Plasmodium falciparum",
    "pIC50": 6.10
  },
  {
    "Molecule": "CC(=O)O[C@H]1CC(C)(C)[C@]2(O)CCc3c(cc4occc4c3C)[C@@]2(C)[C@H]1OC(C)=O",
    "Experimental target": "Plasmodium falciparum",
    "pIC50": 7.01
  },
  {
    "Molecule": "CC(=O)O[C@H]1C[C@@H](OC(C)=O)C(C)(C)[C@]2(O)CCc3c(cc4occc4c3C)[C@@]12C [CAESALDEKARINE]",
    "Experimental target": "Plasmodium falciparum",
    "pIC50": 5.40
  },
  {
    "Molecule": "COC(=O)[C@@H]1c2ccoc2C[C@H]2[C@H]1C[C@H](OC(C)=O)[C@@]1(O)C(C)(C)CC[C@H](OC(C)=O)[C@]21C [CAESALPININ E]",
    "Experimental target": "Plasmodium falciparum",
    "pIC50": 5.19
  },
  {
    "Molecule": "C=C1c2ccoc2C[C@H]2[C@H]1CC[C@@]1(O)C(C)(C)[C@H](OC(C)=O)[C@H](OC(C)=O)[C@H](OC(C)=O)[C@]21C",
    "Experimental target": "Plasmodium falciparum",
    "pIC50": 6.70
  },
  {
    "Molecule": "CC(=O)O[C@H]1CC(C)(C)[C@]2(O)CCc3c(cc(O)c(C=O)c3C)[C@@]2(C)[C@H]1OC(C)=O [NORCAESALPININ C]",
    "Experimental target": "Plasmodium falciparum",
    "pIC50": 5.30
  }
]

(1) CC(=O)O[C@H]1[C@@H](OC(C)=O)C(C)(C)[C@]2(O)CCc3c(cc4occc4c3C)[C@@]2(C)[C@H]1OC(C)=O
(2) CC(=O)O[C@H]1CC(C)(C)[C@]2(O)CC[C@H]3C(=O)c4ccoc4C[C@@H]3[C@@]2(C)[C@H]1OC(C)=O [NORCAESALPININ A]
Hey, between 1 and 2 which has a smaller measured pIC50? Respond with the label that goes with your answer. 1
